IC50 by entry:
Molecular target: Kv1.3 potassium channel (Homo sapiens)
Sequence (P22001 whole entry): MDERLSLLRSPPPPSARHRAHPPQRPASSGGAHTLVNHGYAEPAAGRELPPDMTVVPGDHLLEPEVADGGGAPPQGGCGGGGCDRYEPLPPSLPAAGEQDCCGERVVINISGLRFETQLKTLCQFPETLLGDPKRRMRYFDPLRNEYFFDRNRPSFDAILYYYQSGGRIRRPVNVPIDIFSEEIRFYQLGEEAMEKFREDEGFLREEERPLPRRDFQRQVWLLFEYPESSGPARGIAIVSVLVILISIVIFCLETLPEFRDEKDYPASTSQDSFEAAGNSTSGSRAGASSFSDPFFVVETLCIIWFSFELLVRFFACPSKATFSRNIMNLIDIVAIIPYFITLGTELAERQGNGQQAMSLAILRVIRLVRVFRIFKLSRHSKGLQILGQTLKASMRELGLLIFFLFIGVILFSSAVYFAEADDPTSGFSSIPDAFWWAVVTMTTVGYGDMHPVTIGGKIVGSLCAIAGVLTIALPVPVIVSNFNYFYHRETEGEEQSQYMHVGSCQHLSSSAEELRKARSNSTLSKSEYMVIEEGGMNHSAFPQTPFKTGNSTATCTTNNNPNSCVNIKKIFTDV
Assay: Kv1.3 potassium channel blocker activity, automated whole-cell patch clamp (Patchliner) in CHO-K1 cells stably expressing Kv1.3
Details: 30 nM-100 μM

Some entries whose results are on file:
What the record says about O=C1Nc2cc(Cl)c(Cl)cc2[C@]12CCN(C(=O)[C@H]1C[C@H](O)C1)C2 : IC50 is < 3 µM

What the record says about O=C([C@H]1CN[C@H](CO)C1)N1CC[C@]2(C1)C(=O)Nc1cc(Cl)c(Cl)cc12 : IC50 is < 0.3 µM

What the record says about O=C1Nc2cc(Cl)c(Cl)cc2[C@]12CCN(C(=O)[C@H]1C[C@@H](O)C1)C2 : IC50 is < 3 µM

Next:
What the record says about Cn1cc(C(=O)N2CC[C@]3(C2)C(=O)Nc2cc(Cl)c(Cl)cc23)ccc1=O : IC50 is < 10 µM
